# Method Description: qHTS for Inhibitors of the Functional Ribonucleoprotein Complex (vRNP) of Lymphocytic Choriomeningitis Arenaviruses (LCMV): Viability assay - alamar blue signal for LCMV Primary Screen (AID 1347085); also: nearly all actives have a fitted effect of over 80% in size
# Run Conditions: alamar blue viability counter-screen, LCMV vRNP screen cells; series mostly up to 57.5 µM
Results filed as inconclusive are left out. Calls of active or inactive are those of the source. Calls follow the shape of the full dose curve; tested in HEK293 reporter line.
Thanks in advance; please answer with one of these: label 1 (active), label 0 (inactive)

Completed entries (count: 3):
C/C=C/C=C/CO : label 0
C[C@H](NC(=O)C(C#N)=Cc1cccc(Br)n1)c1ccccc1 : label 0
CC[C@H]1NC(=O)[C@@H](NC(=O)c2ncccc2O)[C@@H](C)OC(=O)[C@H](c2ccccc2)NC(=O)[C@@H]2CC(=O)CCN2C(=O)[C@H](Cc2ccccc2)N(C)C(=O)[C@@H]2CCCN2C1=O : label 0

Please indicate how the test categorized COc1cc2c(NC3CCN(C(C)C)CC3)nc(C3CCCCC3)nc2cc1OCCCN1CCCC1 .
label 1

What outcome does the record of this test show for Cn1cnc2c(NCc3ccccc3)nc(NCCO)nc21 ?
label 0

I'd appreciate the recorded outcome for C=C(C)c1cc2c(ccc3ccc(=O)oc32)o1 from this test.
label 0

Given O=c1cc(-c2ccc(O)cc2)oc2c([C@@H]3O[C@H](CO)[C@@H](O)[C@H](O)[C@H]3O)c(O)c([C@@H]3O[C@H](CO)[C@@H](O)[C@H](O)[C@H]3O)c(O)c12 , state the outcome it received in this test.
label 0

Tell me the recorded outcome of this test for COc1cc(C)ccc1C(C)C .
label 0

GET /call?item= COc1c(OCCCN2CCOCC2)ccc2c3n(c(=NC(=O)c4cnc(N)nc4)nc12)CCN3 returns the recorded outcome of this test.
label 1

Entry Cn1c(=O)c2[nH]c(C3CCCC3)nc2n(C)c1=O : call = ?
label 0

---

# Test system: CAOV3
# Method Description: Primary qHTS to identify gynecologic anti-cancer compounds using libraries of approved drugs and bioactive compounds (AID 1345084); also: nearly all actives have a fitted effect of over 55% in size
# Run Conditions: Gynecologic cancer cell panel viability, ATPlite luminescence, 48 h; series mostly up to 57.5 µM
Records with an inconclusive call do not appear. Active and inactive are the calls of the source. Calls come from the whole dose curve; as a rule, active = well fitted cell-killing curve with a large enough effect; inconclusive = small, poorly fitted or top-dose-only effect, or effect the other way; inactive = flat fitted curve, though single readings scatter.
Pick one: t for active, f for inactive

CC(=O)OC[C@]12C[C@H](OC(C)=O)C(C)=C[C@H]1O[C@@H]1[C@H](O)[C@@H](O)[C@@]2(C)[C@]12CO2 : t
C[C@H]1CN(CC[C@H](O)C2CCCCC2)CC[C@@]1(C)c1cccc(O)c1 : f
C[C@]12CC[C@H]3[C@@H](CCC4=C/C(=N/OCC(=O)O)CC[C@@]43C)[C@@H]1CC[C@@H]2O : f
CC(=O)OC[C@]12C[C@H](OC(=O)CC(C)C)C(C)=C[C@H]1O[C@@H]1[C@H](O)C[C@@]2(C)[C@]12CO2 : t
C=C1[C@@H](C)[C@H]2[C@H](Cc3ccccc3)NC(=O)[C@]23OC(=O)/C=C/C(=O)CCC[C@@H](C)C/C=C/[C@H]3[C@@H]1O : t
CCC(C)(O)C1(C(=O)O)COC(=O)C1 (configuration not stated) : f
CNC(=O)c1cc(C#N)cc(C)c1NC(=O)c1cc(Br)nn1-c1ncccc1Cl : f
C/C=C(\C)C(=O)O[C@@H]1[C@@H](C)[C@]2(O)C3C=C(C)C(=O)[C@@]3(O)CC(CO)=C[C@H]2C2C(C)(C)[C@@]21OC(=O)C(C)CC (some centres not stated) : f

How did this test come out for C=CCN1CCC2(C)c3cc(O)ccc3C[C@H]1[C@H]2C ?
f

Identify the outcome logged in this assay for the compound shown: C[C@]12CCC(=O)C=C1CC[C@@H]1[C@@H]2[C@@H](O)C[C@]2(C)C(=O)CC[C@@H]12
f

Test call, this compound: NCCCCCNC1(c2ccccc2)CCCCC1
f

Just curious, what result did CN1C(=O)CN=C(c2ccccc2Cl)c2cc(Cl)ccc21 get here?
f

Outcome? COc1ccc(C23CCC(=O)C=C2N(C)CC3)cc1OC (configuration not stated)
f

Field: outcome | Entry: CC(C)(O)/C=C/C(=O)[C@](C)(O)[C@H]1[C@H](O)C[C@@]2(C)[C@@H]3CC=C4[C@@H](C[C@H](O)C(=O)C4(C)C)[C@]3(C)C(=O)C[C@]12C
t

---

# Method Description: qHTS for Inhibitors of the Functional Ribonucleoprotein Complex (vRNP) of Lymphocytic Choriomeningitis Arenaviruses (LCMV): Viability assay - alamar blue signal for LCMV Primary Screen (AID 1347085); also: nearly all actives have a fitted effect of over 80% in size; also: potency is read from the fitted curve at half-maximal effect
# Run Conditions: alamar blue viability counter-screen, LCMV vRNP screen cells; series mostly up to 57.5 µM
Inconclusive results are not listed. Activity calls are given as the source filed them. Calls follow the shape of the full dose curve; tested in HEK293 reporter line.
Property Measured: Potency

Would you please look over these solved cases?
O=C(O)C1=CC(=C(c2ccc(O)c(C(=O)O)c2)c2ccc(O)c(C(=O)O)c2)C=CC1=O : inactive
COC(=O)c1cc(O)c(O)c(O)c1 : inactive
C=CC(=O)N1CCC[C@@H](n2nc(-c3ccc(Oc4ccccc4)cc3)c3c(N)ncnc32)C1 : 21.7 µM (active)
O=C1Nc2ccc(I)cc2/C1=C/c1cc(Br)c(O)c(Br)c1 : inactive

Parameter requested: Potency. Apply to each item below.
1. CCC12CCCN3CCC4(C(=C(C(=O)OC)C1)Nc1ccccc14)C32 (stereo unspecified)
2. C=CCc1ccc(O)c(-c2cc(CC=C)ccc2O)c1

1. inactive
2. inactive

---

# Method Description: qHTS for Inhibitors of the Functional Ribonucleoprotein Complex (vRNP) of Lassa (LASV) Arenavirus: Viability assay - alamar blue signal for LASV Primary Screen (AID 1347083); also: nearly all actives have a fitted effect of over 80% in size
# Run Conditions: cell viability, alamar blue fluorescence (LASV minigenome counter-screen); series mostly up to 57.5 µM
Records with an inconclusive call do not appear. Active and inactive are the calls of the source. Calls follow the shape of the full dose curve; tested in HEK293 reporter line.
Choose one outcome from this list and give only that: T = active, F = inactive

Answered examples (5):
CC1=CCC[C@@H]2[C@@](C)(CC/C(C)=C/C(=O)O)[C@H](C)CC[C@@]12C : F
NC(=O)c1ccc2nc(-c3ccc(Oc4ccc(Cl)cc4)cc3)[nH]c2c1 : T
O=C(O)C=C(Br)Br : F
CC(C)n1nc(-c2ccc3oc(N)nc3c2)c2c(N)ncnc21 : T
COc1cccc2c1cc([N+](=O)[O-])c1c(C(=O)O)cc3c(c12)OCO3 : F

Called result for O=C(O)C1CCCNC1 (configuration not stated)
F

Recorded test call requested for Nc1ccc(-c2ccc3ccccc3n2)cc1
F

State the result this test recorded for COc1cccc2c1[C@@H]1CN(CCCCn3c(=O)[nH]c4c(sc5ncc(-c6ccccc6)nc54)c3=O)C[C@@H]1CO2 .
F

---

# Method Description: qHTS for Inhibitors of the Functional Ribonucleoprotein Complex (vRNP) of Lassa (LASV) Arenavirus: Viability assay - alamar blue signal for LASV Primary Screen (AID 1347083); also: nearly all actives have a fitted effect of over 80% in size
# Run Conditions: cell viability, alamar blue fluorescence (LASV minigenome counter-screen); series mostly up to 57.5 µM
Inconclusive results are not listed. Activity calls are given as the source filed them. The call rests on the fitted dose curve; tested in HEK293 reporter line.
Allowed answers: active, inactive

Example results:
O=C1c2c(O)cc(O)cc2O[C@H](c2cc(O)c(O)c(O)c2)[C@H]1O : inactive
C[N+](C)([O-])CCNc1ccc(NCC[N+](C)(C)[O-])c2c1C(=O)c1c(O)ccc(O)c1C2=O : inactive
C[N+]1(CCCCC[N+]2(C)CCCC2)CCCC1 : inactive
O=C(O)c1cc(O)c2ccccc2c1O : inactive
NC(=O)Nc1sc(-c2ccc(F)cc2)cc1C(N)=O : active

Status in this test for O=[N+]([O-])c1ccc(Nc2ccccc2-c2ccccc2)c2nonc12 ?
inactive

Short answer needed: outcome of this test for C=CC(C)(CCC=C(C)C)OC=O (configuration not stated) ?
inactive

Please let me know the test result on file for CCCCCCCCCC(=O)NC(CN1CCOCC1)[C@H](O)c1ccccc1 (some centres not stated) .
inactive

---

# Method Description: qHTS for Inhibitors of the Functional Ribonucleoprotein Complex (vRNP) of Lassa (LASV) Arenavirus: Viability assay - alamar blue signal for LASV Primary Screen (AID 1347083); also: nearly all actives have a fitted effect of over 80% in size
# Run Conditions: cell viability, alamar blue fluorescence (LASV minigenome counter-screen); series mostly up to 57.5 µM
Inconclusive results are not listed. The source made the active and inactive calls. Calls come from the whole dose curve; tested in HEK293 reporter line.
API: response.call in true for active, false for inactive

Past entries and their recorded results:
CCCCCCC/C=C\CCCCCCCCC(=O)O : false
CCCC(=O)OCCC(C)CCC=C(C)C (stereo unspecified) : false

Tell me the recorded outcome of this test for C[C@]12CC[C@@H](O)CC1=CC(=O)C1C2CC[C@]2(C)C(=O)[C@H](O)CC12 (stereo partly specified) .
false

Recorded test outcome, item CC(C)(O[C@@H]1O[C@H](CO)[C@@H](O)[C@H](O)[C@H]1O)[C@H]1Cc2cc3ccc(=O)oc3cc2O1
false

Could you kindly confirm the outcome this assay logged for CCOC(=O)O[C@]1(C(=O)OCCl)CC[C@@H]2[C@H]3CCC4=CC(=O)C=C[C@]4(C)[C@@H]3[C@@H](O)C[C@@]21C ?
false

Could you kindly confirm the outcome this assay logged for C=CC(=O)Nc1cccc(Oc2nc(Nc3ccc(N4CCN(C)CC4)cc3)ncc2Cl)c1 ?
true

# lookup: test call for CCC(C)c1nccnc1OC (stereo unspecified)
false

For CC[C@H](CC[C@@H](C)[C@H]1CC[C@H]2[C@@H]3CC=C4C[C@@H](O)CC[C@]4(C)[C@@H]3CC[C@]12C)C(C)C , which call appears in the assay record?
true

Write down the call the test reported for this compound. Item: N=S(=O)(O)Cc1noc2ccccc12
false

Test call, this compound: CCCCCCC(=O)O
false

For CCCCS(=N)(=O)CC[C@H](N)C(=O)O (stereo partly specified) , what call appears in the results of this test?
false
